Data provenance: patent US20190322748A1

target: T1, biotinylated cynoPD1-ECD-Biotin (cynomolgus)
T1 construct: extracellular domain; also called cyPD1
procedure_details: ELISA on coated cynoPD1-ECD-Biotin
measured_attribute: EC50 (ng/mL)

binder	endpoint_unit	endpoint_result
PD1-0103-0315 (antibody, human IgG1, V domains shown, Humanized) VH: EVQLLESGGGLVQPGGSLRLSCAASGFSFSSYTMSWVRQAPGKGLEWVATISGGGRDIYYPDSVKGRFTISRDNSKNTLYLQMNSLRAEDTAVYYCVLLTGRVYFALDSWGQGTLVTVSS VL: EIVLTQSPATLSLSPGERATLSCRASESVDTSDNSFIHWYQQKPGQSPRLLIYRSSTLESGIPARFSGSGSGTDFTLTISSLEPEDFAVYYCQQNYDVPWTFGQGTKVEIK	ng/mL	7.9
PD1-0103-0314 (antibody, human IgG1, V domains shown, Humanized) VH: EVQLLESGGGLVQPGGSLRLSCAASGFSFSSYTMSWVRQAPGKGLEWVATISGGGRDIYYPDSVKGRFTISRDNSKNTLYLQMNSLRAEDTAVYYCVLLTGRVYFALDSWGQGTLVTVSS VL: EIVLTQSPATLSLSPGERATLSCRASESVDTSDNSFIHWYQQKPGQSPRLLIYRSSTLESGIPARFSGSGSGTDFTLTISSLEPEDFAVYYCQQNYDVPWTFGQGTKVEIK	ng/mL	8.3
PD1-0103-0313 (antibody, human IgG1, V domains shown, Humanized) VH: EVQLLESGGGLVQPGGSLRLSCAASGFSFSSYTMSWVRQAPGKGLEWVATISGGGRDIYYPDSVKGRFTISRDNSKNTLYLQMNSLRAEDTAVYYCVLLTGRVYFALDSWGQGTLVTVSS VL: DVVMTQSPLSLPVTLGQPASISCRASESVDTSDNSFIHWYQQRPGQSPRLLIYRSSTLESGVPDRFSGSGSGTDFTLKISRVEAEDVGVYYCQQNYDVPWTFGQGTKVEIK	ng/mL	11
PD1-0103-0312 (antibody, human IgG1, V domains shown, Humanized) VH: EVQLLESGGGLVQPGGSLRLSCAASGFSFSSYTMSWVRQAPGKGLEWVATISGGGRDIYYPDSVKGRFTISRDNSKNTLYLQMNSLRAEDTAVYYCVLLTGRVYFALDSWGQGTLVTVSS VL: DIVMTQSPDSLAVSLGERATINCKASESVDTSDNSFIHWYQQKPGQSPKLLIYRSSTLESGVPDRFSGSGSGTDFTLTISSLQAEDVAVYYCQQNYDVPWTFGQGTKVEIK	ng/mL	8.3
